Test system: MS2 coat protein
protocol: apparent KD of MS2 coat protein; higher = weaker reporter binding
settings: Eterna round: R107; input ligand: theophylline 20 uM
Threshold check on apparent KD of MS2 coat protein: at or above 50 nM gives yes, strictly below gives no.

These solved cases illustrate the format of a correct answer.
INSERT INTO measurements (entry_sequence, category_label) VALUES
  ('AAACGUUGCUGCGAUACCAGACAUGAGGAUCACCCAUGUACCAAGGUAAGAAAAUAACAUGUCCCUUGGCAGCGCAGCAACGAAA [MAT - Exclusion Theophlline B - Mod of Eli - D3]', 'no'),
  ('GCUACAUGAGGAUCACCCAUGUCAGCUACACGAGGACCGGUACGGCCGCCACUCGGUAGCGCUCAUCCUCGUGUGUAAGUCAAGU [Xedier]', 'yes');

QUERY: Please tell me: is the sequence GUCCUCAGCCGAAGGAGCGCUAGAAGGUGACAUGAGGAUCACCCAUGUGUGUGAUGUGGCUAGCAGGUAGGUCGCGGAGAGGAUU [Exclusion - Arginine B (Freestyle 17)] at or over 50 nM in terms of apparent KD of MS2 coat protein?
RESULT: yes

QUERY: Continue with GGCGGACUUAUAGAUACCAGCACAUGAGGAUCACCCAUGUUUGGUCGCACCUCAGUCCUGUGCCCUUGGCAGCUAUGAUAGAUUU [Leaatge]
RESULT: no

QUERY: Continue with GCAUCCUAGUCGGCCGCCACUGCAACAUGAGGAUCACCCAUGUCAGGCCUCAUGUGUCCUGGUAGCAGGACCGGGACUAGGAUGC [(T1)-(M1)-(M2)-(T)''-(M)'-(T)'-(T2)_Design4_2/18/17]
RESULT: no
